# Tgt: T1, human CD70, recombinant, N-terminally biotinylated (residues 39-193) (human, UniProt P32970 39-193, N-terminal biotin)
# T1 construct: range 39-193; the same entry is used there; also called biotinylated human CD70; CD70 biotin
# T1 sequence (looked up): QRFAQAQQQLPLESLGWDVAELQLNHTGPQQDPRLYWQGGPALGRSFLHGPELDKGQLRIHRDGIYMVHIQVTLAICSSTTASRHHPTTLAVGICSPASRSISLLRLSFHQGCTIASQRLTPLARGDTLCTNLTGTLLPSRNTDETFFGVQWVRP
# Experimental Details: CD27 blocking ELISA, 3 µM scFv, anti-His/HRP; note: unit not given here
Lab note: anything with anti His/HRP at or over 2 counts as MET; the rest go in NOT MET.

| Binder | Answer Label |
| --- | --- |
| 14-TC6-I-F03 (scFv, His-tagged) scFv: QVQLVQSGAEVKKPGASVKVSCKASGYTFTGYYMNWVRQAPGQGLEWMAWINPNTGDTNYAQKFQGRVTMTRDTSINTAYIELSRLTSDDTAVYYCARVGDYYDRSGYYRHDAFDIWGQGTMVTVSSGGSGGSGGSGGSSSELTQDPAVSVALGQTVRITCQGDSLRSYYASWYQQKPGQAPVLVIYGKNNRPSGIPDRFSGSNSGNTATLTISGTQAMDEADYYCQAWDSSTVFGGGTKVTVL | MET |
| 57-TC7-VII-A03 (scFv, His-tagged) scFv: QVQLQQSGPGLVKASETLSLTCAVSGHSISSSNYWGWIRQPPGKGLEWIGSIYHSGTTYYNPSLKSRVTMSVDTSKNQFSLKLSSVTAADTAVYYCARHGSGDLGYLEYWGQGTLVTVSSGGSGGSGGSGGSSYELTQSPSVSVAPGKTARITCGGNNIGSKSVHWYQQKPGQAPVLVIYYDSDRPSGIPERFSGSNSGNTATLTISRVEAGDEADYYCQVWDSSSDHPVFGGGTKVTVL | NOT MET |
| 49-TC4-XVI-F01 (scFv, His-tagged) scFv: QVQLVESGGGVVQPGRSLRLSCAASGFTFSSYAMHWVRQAPGKGLEWVAVISYDGSNKYYADSVKGRFTISRDNSKNTLYLQMNSLRAEDTAVYYCARDSTQDYGMDVWGQGTMVTVSSGGSGGSGGSGGSSSELTQDPAVSVALGQTVRITCQGDSLRNYYASWYQQKPGQAPVLVFYGKNNRPSGIPDRFSGSSSGNTASLTITGAQAEDEADYYCNSRDSSGNHLVVFGGGTKLTVL | MET |
| 53-TC7-VI-B06 (scFv, His-tagged) scFv: EVQLLESGGGVVQPGRSLRLSCAASGFTFSSYGMHWVRQAPGKGLEWVAVISYDGSNKYYADSVKGRFTISRDNSKNTLYLQMNSLRAEDTAVYYCAKGELELTNWGQGTLVTVSSGGSGGSGGSGGSSYELTQPPSVSVAPGQTARITCGGNNIGSKSVHWYQQKSGQAPVLVVYDDTDRPSGTPERFSGSNSGNTATLTISGTQAMDEADYYCQAWDSSTAVFGTGTKVTVL | NOT MET |
| 32-TC1.2-I-F07-6 (scFv, His-tagged) scFv: QVQLVQSGAEVKKPGESLKISCKGSGYSFTSYWIGWVRQMPGKGLEWMGIIYPGESDTRYSPSFQGQVTISADKSISTAYLQWSSLKASDTAMYYCARRNYYDRSGYVDAFDIWGQGTMVTVSSGGSGGSGGSGGSSSELTQDPAVSVALGQTVRITCQGDSLRRFYASWHQQKPGQAPIVVMYAENNRPSGIPDRFSGSSSGNTASLTITGAQAEDEATYYCNSRDSSGNRHVFGTGTKLTVL | MET |
| 59-TC4-VII-F02 (scFv, His-tagged) scFv: QLQLQESGPGLVKPSGTLSLTCAVSGGSISSSNWWSWVRQPPGKGLEWIGEIYHSGSTNYNPSLKSRVTISVDKSKNQFSLKLSSVTAADTAVYYCAGPGPDPNDAFDIWGQGTMVTVSSGGSGGSGGSGGSSSELTQDPAVSVALGQTVRITCQGDSLRSYYASWYQQLPGTAPKLLIYQDSKRPSGIPERFSGSNSGNTATLTISGTQAMDEADYYCQAWDSSTAVFGGGTKLTVL | MET |
| 37-TC7-VII-D05 (scFv, His-tagged) scFv: QMQLVQSGGGVVQPGRSLRLSCAASGFTFSSYAMHWVRQAPGKGLEWVAVISYDGSNKYYADSVKGRFTISRDNSKNTLYLQMNSLRAEDTAVYYCARDALWDTATFDYWGQGTLVTVSSGGSGGSGGSGGSSSELTQDPAVSVALGQTVRITCQGDSLRSYYASWYQQKPGQAPVLVIYGKNNRPSGIPDRFSGSSSGNTASLTITGAQAEDEADYYCNSRDSSGNPWVFGGGTKLTVL | MET |
| 35-TC6-VII-A09 (scFv, His-tagged) scFv: EVQLVQSGGGVVQPGRSLRLSCAASGFTFSSYGMHWVRQAPGKGLEWVAVISYDGSNKYYADSVKGRFTISRDNSKNTLYLQMNSLRAEDTAVYYCAKAGAPPHYYYGMDVWGQGTTVTVSSGGSGGSGGSGGSQSALTQPASVSGSPGQSITISCTGTSSDVGGYDYVSWYQQHPGKAPKLMIYEVTDRPSGIPNRFSGSKSGNTASLTISGLQAEDEADYYCSSYTYTSTLEVFGGGTKVTVL | NOT MET |
